All figures here come from patent US20240199546A1.

target: human SLC6A19 and TMEM27 (Homo sapiens); construct: expressed in transfected cells; assay: Radiolabelled (3H) leucine uptake in CHO cells with doxycycline-inducible expression of human SLC6A19 and TMEM27 (Example B-1); assay type: cell-based; details: CHO cells with doxycycline-inducible expression of human SLC6A19 and TMEM27, read-out: SLC6A19_Radioligand Uptake Assay IC50
Sequence (Q695T7 whole entry): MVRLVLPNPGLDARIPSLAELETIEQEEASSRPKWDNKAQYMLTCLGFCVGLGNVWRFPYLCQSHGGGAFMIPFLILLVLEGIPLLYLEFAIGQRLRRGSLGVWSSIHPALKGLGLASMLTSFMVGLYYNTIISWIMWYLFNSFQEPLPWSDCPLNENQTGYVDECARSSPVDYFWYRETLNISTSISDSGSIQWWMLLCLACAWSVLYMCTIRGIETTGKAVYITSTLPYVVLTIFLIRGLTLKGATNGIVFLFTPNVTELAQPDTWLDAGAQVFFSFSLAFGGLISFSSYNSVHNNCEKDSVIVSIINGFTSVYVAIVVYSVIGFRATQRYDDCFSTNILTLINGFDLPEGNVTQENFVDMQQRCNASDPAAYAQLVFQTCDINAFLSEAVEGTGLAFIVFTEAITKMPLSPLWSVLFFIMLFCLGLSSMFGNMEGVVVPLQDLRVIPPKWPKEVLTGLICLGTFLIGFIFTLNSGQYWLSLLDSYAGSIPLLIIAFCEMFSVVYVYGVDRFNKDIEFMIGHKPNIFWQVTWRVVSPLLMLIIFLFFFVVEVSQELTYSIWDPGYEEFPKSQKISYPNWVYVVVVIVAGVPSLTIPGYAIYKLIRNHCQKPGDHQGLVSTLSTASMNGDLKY
Sequence (Q9HBJ8 15-222 partner): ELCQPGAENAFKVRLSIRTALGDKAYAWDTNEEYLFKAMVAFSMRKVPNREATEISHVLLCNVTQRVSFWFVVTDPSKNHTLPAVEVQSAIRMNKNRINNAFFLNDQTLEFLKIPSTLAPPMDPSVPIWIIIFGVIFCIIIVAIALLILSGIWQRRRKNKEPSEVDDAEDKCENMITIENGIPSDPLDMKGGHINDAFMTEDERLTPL
What pIC50 was measured for each of the following?
One number for each entry, as −log10 of the molar value.

>  <compound>
O=C(NCc1cc2cc(Cl)c(OCc3cscn3)cc2[nH]1)N1CCC1CO (racemic)

>  <pIC50>
6.00

$$$$
>  <compound>
CC1CN(C(=O)NCc2cc3cc(Cl)c(OCc4cscn4)cc3[nH]2)C1

>  <pIC50>
6.46

$$$$
>  <compound>
CN(C(=O)NCc1cc2cc(Cl)c(OCc3cscn3)cc2[nH]1)C1CC1

>  <pIC50>
6.64

$$$$
>  <compound>
CSc1cc2cc(CNC(=O)C3(C)CC3)[nH]c2cc1OCc1ccon1

>  <pIC50>
6.65

$$$$
>  <compound>
CC1(C(=O)NCc2cc3cc(F)c(CCc4ccon4)cc3[nH]2)CC1

>  <pIC50>
6.79

$$$$

For every listed record, write down its pIC50.
1. Cc1cc(COc2cc3[nH]c(CNC(=O)C4CCN(C)C4=O)cc3cc2Cl)on1 (racemic)
2. C[C@H](O)C(=O)NCc1cc2cc(F)c(OCc3cscn3)cc2[nH]1

5.44
5.64

For every listed record, write down its pIC50.
1. Cc1cc(COc2cc3[nH]c(CNC(=O)[C@@H]4CCN4)cc3cc2Cl)on1
2. COC(C)COc1cc2[nH]c(CNC(=O)C3(C)CC3)cc2cc1Cl (centres unmarked)
3. CC(C)C(=O)NCc1cc2cc(Cl)c(OCc3ccon3)cc2[nH]1

1: 5.56; 2: 6.10; 3: 6.87

For every listed record, write down its pIC50.
1. CC1(C(=O)NCc2cc3cc(-c4ccno4)c(OCc4cscn4)cc3[nH]2)CC1
2. CC1(C(=O)NCc2cc3cc(OC(F)(F)F)c(OCc4cocn4)cc3[nH]2)CC1
3. O=C(NCc1cc2cc(Cl)c(OCc3cscn3)cc2[nH]1)[C@@H]1CCO1
4. O=C(NCc1cc2cc(F)c(OCc3cscn3)cc2[nH]1)C1(CO)CC1
5. CC1(C(=O)NCc2cc3cc(F)c(COc4ccon4)cc3[nH]2)CC1

1: 5.80; 2: 6.49; 3: 6.83; 4: 5.87; 5: 6.82

For every listed record, write down its pIC50.
1. O=C(NCc1cc2cc(OC(F)(F)F)c(CCc3cscn3)cc2[nH]1)N1CCCC1
2. CC1(C(=O)NCc2cc3cc(C4CC4(F)F)c(OCc4cscn4)cc3[nH]2)CC1 (centres unmarked)
3. CC1(C(=O)NCc2cc3cc(Cl)c(OCc4cnccc4F)cc3[nH]2)CC1
4. CC1(C(=O)NCc2cc3cc(Cl)c(OCc4cccc(F)n4)cc3[nH]2)CC1
5. O=C(NCc1cc2cc(F)c(OCc3ccno3)cc2[nH]1)N1CCC1
6. Cc1cc(COc2cc3[nH]c(CNC(=O)C4OCCC4(F)F)cc3cc2Cl)on1 (centres unmarked)
7. Cc1cc(COc2cc3[nH]c(CNC(=O)N4CCC4C#N)cc3cc2Cl)on1 (centres unmarked)
8. Cc1cc(COc2cc3[nH]c(CNC(=O)[C@@H]4CCCN4C)cc3cc2Cl)on1

6.36
6.18
6.41
6.88
6.47
6.20
5.67
5.84
